Recorded LD50, one value per entry.
experiment: in vivo; details: mouse
# number only, unit mg/kg dropped from output

These recorded examples may help you get a feel for the data.
CC(C)Cc1ccc(C(C)C(=O)OC2OC(=O)c3ccccc32)cc1 (stereo not drawn)	1540
CC(C(=O)OC1OC(=O)c2ccccc21)c1ccc(N2Cc3ccccc3C2=O)cc1 (stereo not drawn)	987

Now consider a different compound.
Hello, please tell me recorded LD50 for this one: CC(C(=O)O)c1ccc(N2Cc3ccccc3C2=O)cc1 (stereo not drawn) [Compound IV, reference compound] 536

* * *

assay: ulcerogenic activity in rats (DU50); details: rat, in vivo; rats; head DU50*: data statistically significant; read-out: DU50 ulcerogenic activity
EXPERIMENTAL READOUT: TD50 (mg/kg)
# number only, unit mg/kg dropped from output

These recorded examples may help you get a feel for the data.
O=C(O)Cc1ccccc1Nc1c(Cl)cccc1Cl [Compound VI, 2-(2,6-dichloroanilino)phenylacetic acid, reference compound]	13.1
CC(C(=O)O)c1cccc(C(=O)c2ccccc2)c1 (stereo not drawn) [Compound III, 2-(3-benzoylphenyl)propionic acid, reference compound]	31.5

Hello, please tell me recorded TD50 for this one: COc1ccc2cc([C@H](C)C(=O)O)ccc2c1 [Compound II, d-2-(6-methoxy-2-naphthyl)propionic acid, reference compound] 78.7

* * *

assay: in vivo; settings: rat
Kindly note that classification relies on LD50 with these boundaries: group A = under 300 mg/kg, group B = from 300 mg/kg up to 1000 mg/kg, group C = 1000 mg/kg and over

Some solved entries appear below for comparison.
CC(C(=O)OC1OC(=O)c2ccccc21)c1cccc(C(=O)c2ccccc2)c1 (stereo not shown) [Compound IIIA, phthalidyl 2-(3-benzoylphenyl)propionate]	group B
C=CCOc1ccc(CC(=O)OC2OC(=O)c3ccccc32)cc1Cl (stereo not shown)	group C
O=C(Cc1ccc(-c2ccccc2)cc1)OC1OC(=O)c2ccccc21 (stereo not shown) [Compound VIIIA, phtalidyl 4-biphenylylacetate]	group C
O=C(Cc1ccccc1Nc1c(Cl)cccc1Cl)OC1OC(=O)c2ccccc21 (stereo not shown)	group B
CC(C(=O)O)c1ccc(N2Cc3ccccc3C2=O)cc1 (stereo not shown) [Compound IV, reference compound]	group A
CC(C)Cc1ccc(C(C)C(=O)OC2OC(=O)c3ccccc32)cc1 (stereo not shown)	group C
O=C(CCC(=O)c1ccc(-c2ccccc2)cc1)OC1OC(=O)c2ccccc21 (stereo not shown)	group C
COc1ccc2cc(C(C)C(=O)OC3OC(=O)c4ccccc43)ccc2c1 (stereo not shown)	group C
O=C(O)Cc1ccc(-c2ccccc2)cc1 [Compound VIII, 4-biphenylylacetic acid, reference compound]	group B

Next item in the queue.
In plain terms, what class is CC(C(=O)OC1OC(=O)c2ccccc21)c1ccc(N2Cc3ccccc3C2=O)cc1 (stereo not shown) ? group A

* * *

Recorded LD50, one value per entry.
assay: in vivo; settings: mouse
# number only, unit mg/kg dropped from output

These recorded examples may help you get a feel for the data.
O=C(CCC(=O)c1ccc(-c2ccccc2)cc1)OC1OC(=O)c2ccccc21 (stereo not shown)	1400
O=C(Cc1ccccc1Nc1c(Cl)cccc1Cl)OC1OC(=O)c2ccccc21 (stereo not shown)	593
CC(C(=O)OC1OC(=O)c2ccccc21)c1cccc(C(=O)c2ccccc2)c1 (stereo not shown) [Compound IIIA, phthalidyl 2-(3-benzoylphenyl)propionate]	514
O=C(O)Cc1ccc(-c2ccccc2)cc1 [Compound VIII, 4-biphenylylacetic acid, reference compound]	750
O=C(Cc1ccc(-c2ccccc2)cc1)OC1OC(=O)c2ccccc21 (stereo not shown) [Compound VIIIA, phtalidyl 4-biphenylylacetate]	1410

Hello, please tell me recorded LD50 for this one: C=CCOc1ccc(CC(=O)OC2OC(=O)c3ccccc32)cc1Cl (stereo not shown) 2060

Hello, please tell me recorded LD50 for this one: COc1ccc2cc(C(C)C(=O)OC3OC(=O)c4ccccc43)ccc2c1 (stereo not shown) 2140

Recorded values, source patent US4529737A.
